Source listed as patent US20110065760A1.

- tested system: hCyp18 (Homo sapiens)
- Sequence (P62937 whole entry): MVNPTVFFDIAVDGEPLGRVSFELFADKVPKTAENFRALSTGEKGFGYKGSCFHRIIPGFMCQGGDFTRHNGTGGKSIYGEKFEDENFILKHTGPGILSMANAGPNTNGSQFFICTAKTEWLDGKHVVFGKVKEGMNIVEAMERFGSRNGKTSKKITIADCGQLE
- protocol: protease-coupled PPIase assay, hCyp18
- Assay type: biochemical
- run parameters: 10 nM hCyp18, substrate Suc-Ala-Phe-Pro-Phe-pNA, chymotrypsin, pH 7.8, 6° C.; read-out: IC50 class, Target T-3 (hCyp18)
measured parameter: IC50

Record CCCCCCCCS(=O)(=O)Nc1cc(Cl)c(C)c(Cl)c1O [Compound 563] . Reported IC50: > 100 µM

Record Oc1c(Cl)cc(Cl)cc1NCc1cccc(Oc2ccc(Cl)cc2)c1 [Compound 482] . Reported IC50: 10 to 50 µM

Record Cc1cccc(C)c1NC(=O)Nc1cc(Cl)c(O)c(Cl)c1 [Compound 716] . Reported IC50: > 100 µM

Record Oc1ccc(NCc2ccccc2Sc2ccc(Cl)cc2)c(O)c1 [Compound 672] . Reported IC50: 1 to 10 µM

Record Cc1c(Cl)cc(NC(=O)Nc2ccccc2)c(O)c1Cl [Compound 120] . Reported IC50: 10 to 50 µM
